Target: T1, B7-H3 on MDA-MB-468 cells (human, UniProt Q5ZPR3)
T1 construct: endogenous, on the cell surface
T1 sequence (cell surface antigen, looked up): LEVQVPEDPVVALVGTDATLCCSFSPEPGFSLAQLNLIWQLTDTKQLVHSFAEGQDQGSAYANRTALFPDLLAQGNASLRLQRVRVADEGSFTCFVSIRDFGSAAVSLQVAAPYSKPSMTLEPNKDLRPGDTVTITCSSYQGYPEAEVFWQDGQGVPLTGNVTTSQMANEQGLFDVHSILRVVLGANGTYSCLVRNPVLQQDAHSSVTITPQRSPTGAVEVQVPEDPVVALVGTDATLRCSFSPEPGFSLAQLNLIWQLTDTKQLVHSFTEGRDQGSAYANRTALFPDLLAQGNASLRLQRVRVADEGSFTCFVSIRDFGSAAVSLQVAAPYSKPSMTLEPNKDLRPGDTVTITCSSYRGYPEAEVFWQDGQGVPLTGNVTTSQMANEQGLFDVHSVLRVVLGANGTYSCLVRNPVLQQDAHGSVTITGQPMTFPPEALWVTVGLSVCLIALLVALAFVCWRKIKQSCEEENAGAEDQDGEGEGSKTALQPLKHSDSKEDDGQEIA
Assay: flow cytometry on MDA-MB-468 cells; blank V2-R 0.9%
measurementType: % of cells in gate V1-R at 33.33 nM (%)
Write down the numeric answer in % and omit the unit.

binder: Antibody V3 (antibody, human IgG1, kappa, V domains shown, Humanized from chimeric antibody M1; also called humanized antibody V3) VH: EVQLVQSGAEVKKSGESLKISCKASGYTFTDYDINWVRQMPGKGLEWIGWIFPGDDTTKYNEKFKGQVTLSADKSTNTAYMQWSSLKASDTAMYYCARSPSFDYWGQGTLVTVSS VL: QIVLTQSPGTLSLSPGERATLSCSASSTIGFMYWYQQKPGQAPRRWIYDTSKLASGVPDRFSGSGSGTDYTLTISRLEPEDFAVYYCHQRSSYPTFGQGTKVEIKR
% of cells in gate V1-R at 33.33 nM, %: 98.9

// query Param item = Antibody V2 (antibody, human IgG1, kappa, V domains shown, Humanized from chimeric antibody M1; also called humanized antibody V2) VH: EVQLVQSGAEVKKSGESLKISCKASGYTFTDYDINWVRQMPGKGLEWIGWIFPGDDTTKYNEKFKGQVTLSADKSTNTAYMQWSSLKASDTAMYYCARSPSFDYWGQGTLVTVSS VL: QIVLTQSPGTLSLSPGERATLSCSASSTIGFMYWYQQKPGQAPRRWIYDTSKLASGVPDRFSVSGSGTDYTLTISRLEPEDFAVYYCHQRSSYPTFGQGTKVEIKR ; retrieve measured % of cells in gate V1-R at 33.33 nM.
// result 99.7

// query What do you have for control Antibody M30-H1-L4 (antibody, human IgG1, kappa, V domains shown, Control anti-B7-H3 antibody) VH: QVQLVQSGAEVKKPGSSVKVSCKASGYTFTNYVMHWVRQAPGQGLEWMGYINPYNDDVKYNEKFKGRVTITADESTSTAYMELSSLRSEDTAVYYCARWGYYGSPLYYFDYWGQGTLVTVSS VL: EIVLTQSPATLSLSPGERATLSCRASSRLIYMHWYQQKPGQAPRPLIYATSNLASGIPARFSGSGSGTDFTLTISSLEPEDFAVYYCQQWNSNPPTFGQGTKVEIKR ?
// result 98.8

// query What do you have for Antibody V5 (antibody, human IgG1, kappa, V domains shown, Humanized from chimeric antibody M1; also called humanized antibody V5) VH: QVQLVQSGAEVKKPGASVKVSCKASGYTFTDYDINWVRQAPGQRLEWIGWIFPGDDTTKYNEKFKGRATLTADKSASTAYMELSSLRSEDTAVYYCARSPSFDYWGQGTLVTVSS VL: QIVLTQSPSSLSASVGDRVTITCSASSTIGFMYWYQQKPGKAPKRWIYDTSKLASGVPSRFSVSGSGTDYTLTISSLQPEDFATYYCHQRSSYPTFGQGTKVEIKR ?
// result 99.6

// query What do you have for Antibody V1 (antibody, human IgG1, kappa, V domains shown, Humanized from chimeric antibody M1; also called humanized antibody V1) VH: EVQLVQSGAEVKKSGESLKISCKASGYTFTDYDINWVRQMPGKGLEWMGWIFPGDDTTKYNEKFKGQVTISADKSTNTAYLQWSSLKASDTAMYYCARSPSFDYWGQGTLVTVSS VL: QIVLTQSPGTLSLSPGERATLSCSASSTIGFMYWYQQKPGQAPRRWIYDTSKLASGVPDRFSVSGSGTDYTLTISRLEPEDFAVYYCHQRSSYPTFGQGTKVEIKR ?
// result 99.6

// query What do you have for Antibody M1 (antibody, human IgG1, kappa, V domains shown, Chimeric antibody: murine variable regions on human IgG1 and light chain constant regions; expressed in HEK293F cells; also called chimeric antibody M1) VH: QVQLQQSGPELVKPGASVRISCKASGYTFTDYDINWVQQRPGQGLEWIGWIFPGDDTTKYNEKFKGRATLTADKSSNTAYMQLNGLTSENSAVYFCARSPSFDYWGQGTLVTVSS VL: QIVLTQSPAIMSASPGERVTMTCSASSTIGFMYWYQQKPGTSPKRWIYDTSKLASGVPARFSVSGSGTSYSLTISSMEAEDAATYYCHQRSSYPTFGGGTKLEIKR ?
// result 99.7
